meta.source: patent US20250340658A1

Listed here are binders together with their documented Bmax.
# Target system: T1, full length human GLP-1R with N-terminal FLAG tag and C-terminal GFP tag, on CHO cells (human, UniProt P43220 24-463)
# T1 construct: whole, on cells; the cell line itself is tied to UniProt P43220; also called FLAG-GLP-1R-GFP; CHO-GLP-1R
# Assay info: flow cytometry titration, CHO GLP1R cells
Give the figure by itself; no unit, no explanation.

1. GLP1R-221-066 (antibody, V domains shown, IgG) VH: QVQLVESGGGVVQPGRSLRLSCAASGFTFNNYAMHWVRQAPGKGLEWVAVISYDRSNEYYADSVKGRFTISRDNSKNTLYLQMNSLRAEDTAVYYCAKHMSMQEGAVTGEGQAIKEFIAWLVKGRVRADLVGDAFDVWGQGTLVTVSS VL: QSVLTQPPSVSAAPGQKVTISCSGSSSNIGNNYLSWYQQLPGTAPKLLIYENNKRPSGIPDRFSGSKSGTSATLGITGLQTGDEADYYCGIWDRSLSAWVFGGGTKLTVL :: 172000

INPUT: Find the recorded Bmax belonging to GLP1R-221-076 (antibody, V domains shown, IgG) VH: QVQLVESGGGVVQPGRSLRLSCAASGFTFNNYPMHWVRQAPGKGLEWVAVISYDETNKYYADSVKGRFTISRDNSKNTLYLQMNSLRAEDTAVYYCAKHMSMQEGAVTGEGQAAKEFIAWLVKGIVRADLVGDAFDVWGQGTLVTVSS VL: QSVLTQPPSVSAAPGQKVTISCSGTSSNIGNNDVSWYQQLPGTAPKLLIYENNKRHSGIPDRFSGSKSGTSATLGITGLQTGDEADYYCLTWDHSLTAYVFGGGTKLTVL and report it.
OUTPUT: 799000

INPUT: I would be grateful if you could share the reported Bmax for GLP1R-3 (antibody, human IgG2, lambda, V domains shown, full length human IgG2; also called GLP1R01-3) VH: QVQLVESGGGVVQPGRSLRLSCAASGFTFSSYGMHWVRQAPGKGLEWVSFISYDESNKYYADSVKGRFTISRDNSKNTLYLQMNSLRAEDTAVYYCAKHMSMQEGAVTGEGQAAKEFIAWLVKGRVRADLVGDAFDVWGQGTLVTVSS VL: QSVLTQPPSVSAAPGQKVTISCSGSSSNIADNYVSWYQQLPGTAPKLLIYDNNKRPSGIPDRFSGSKSGTSATLGITGLQTGDEADYYCGTWDNYLGAGVFGGGTKLTVLG .
OUTPUT: 800000

INPUT: Entry GLP1R-221-065 (antibody, V domains shown, IgG) VH: QVQLVESGGGVVQPGRSLRLSCAASGFTFNNYAMHWVRQAPGKGLEWVAVISYDRSNEYYADSVKGRFTISRDNSKNTLYLQMNSLRAEDTAVYYCAKHMSMQEGAVTGDGQAAKEFIAWLVKGRVRADLVGDAFDVWGQGTLVTVSS VL: QSVLTQPPSVSAAPGQKVTISCSGTTSNIANNFVSWYQQLPGTAPKLLIYDHNKRPSGIPDRFSGSKSGTSATLGITGLQTGDEADYYCGTWDTSLSAGAFGGGTKLTVL has what Bmax?
OUTPUT: 798000
